assay summary: solvent given as SMILES
experimental conditions: in C1CCCCC1
fluorescence lifetime strictly less than 2 ns = Y. Otherwise N.

Study these solved cases before continuing.
| compound | assigned category |
| --- | --- |
| CCNc1ccc2c(C(F)(F)F)cc(=O)oc2c1 | N |
| N#Cc1cccc2ccccc12 | N |
| O=Cc1ccc(C2=C3C=c4c(oc5ccccc45)=[N+]3[B-](F)(F)n3c2cc2c4ccccc4oc23)cc1 | N |
| CN(C)c1ccc(/C=C/C=C/c2ccc(B(O)O)cc2)cc1 | Y |
| Cc1cc(C)cc(C)c1 | N |
| COc1ccc2c(c1)-c1ccccc1C2=O | N |

QUERY: Record `COc1cc(/C=C2/SC(=O)NC2=O)cc(OC)c1O` : is its fluorescence lifetime strictly below 2 ns?
RESULT: Y

QUERY: Record CN(CC(O)c1cccc(O)c1)c1ccc([N+](=O)[O-])c(C2CC(c3cccc4ccccc34)=NN2c2ccccc2)c1 (centres undefined) : is its fluorescence lifetime strictly below 2 ns?
RESULT: Y

* * *

assay summary: solvent given as SMILES
experimental conditions: in O=P(c1ccccc1)(c1ccccc1)c1ccccc1Oc1ccccc1P(=O)(c1ccccc1)c1ccccc1
Assignment: determine reported fluorescence lifetime for the given molecules.

Below are worked cases with known answers.
| structure smiles string | fluorescence lifetime |
| --- | --- |
| COc1ccc2c(c1)c1cc(OC)ccc1n2-c1cccc(-n2c3ccc(OC)cc3c3cc(OC)ccc32)c1C#N | 12.8 ns |
| CC1(C)c2ccccc2-c2cc3c4cc(-n5c6ccccc6c6ccccc65)ccc4n(-c4ccc(-c5nc(-c6ccccc6)nc(-c6ccccc6)n5)cc4)c3cc21 | 34 ns |
| Cc1cc(-n2c3ccccc3c3cc4c(cc32)C2c3ccccc3C4c3ccccc32)c(C)cc1-c1nc(-c2ccccc2)nc(-c2ccccc2)n1 | 10.5 ns |

Would you be so kind as to report fluorescence lifetime for each listed record?
1. c1ccc(-c2nc(-c3ccccc3)nc(-c3ccc(-n4c5ccccc5c5c6c(ccc54)C4(c5ccccc5-c5ccccc54)c4ccccc4-6)cc3)n2)cc1
2. O=S(=O)(c1ccc(N(c2ccccc2)c2ccccc2)cc1)c1ccc(N(c2ccccc2)c2ccccc2)cc1
3. FC(F)(F)c1ccc(-c2nnc(-c3cc(-c4nnc(-c5ccc(C(F)(F)F)cc5)o4)c(-n4c5ccccc5c5ccccc54)cc3-n3c4ccccc4c4ccccc43)o2)cc1
4. CC(C)c1cc(C(C)C)c(B2c3ccccc3Oc3cc(-n4c5ccccc5c5ccc6c(c7ccccc7n6-c6ccccc6)c54)ccc32)c(C(C)C)c1

RESULT:
1: 11.1 ns; 2: 3.5 ns; 3: 8.6 ns; 4: 27 ns

* * *

assay summary: solvent given as SMILES
experimental conditions: in C1CCOC1
Assignment: determine reported log10 of fluorescence lifetime for the given molecules.
Recall that a logarithmic scale is used here: each number is log10 of fluorescence lifetime in ns.

Below are worked cases with known answers.
| molecule | log10 of fluorescence lifetime |
| --- | --- |
| Cc1ccc(-c2ccc(-c3ccc(C)cc3)c(/C(=C(/c3ccccc3)c3cc(-c4ccc(C)cc4)ccc3-c3ccc(C)cc3)c3ccccc3)c2)cc1 | 0.90 |
| C(=C\c1ccc(/C=C/c2ccc(N(c3ccccc3)c3ccccc3)cc2)c2nsnc12)/c1ccc(N(c2ccccc2)c2ccccc2)cc1 | 0.66 |
| COc1ccc(C#Cc2ccc(C#Cc3ccc(C#Cc4ccccc4C#N)cc3C#N)cc2C#N)cc1 | 0.11 |
| COC(=O)C(Cc1ccc2oc(-c3ccc(Nc4ccccc4)cc3)nc2c1)NC(=O)OC(C)(C)C (stereo not given) | 0.43 |
| CCN1\C(=C/C=C/C=C/C2=[N+](CC)c3ccc4cc(Br)ccc4c3C2(C)C)C(C)(C)c2c1ccc1cc(Br)ccc21 | 0.14 |

Would you be so kind as to report log10 of fluorescence lifetime for each listed record?
1. COc1ccc2c3cccc4c(OC)ccc(c5cccc1c52)c43
2. CCCCCCCCN1c2ccccc2Sc2cc(/C=C/c3ccc(N(c4ccc(/C=C/c5ccc6c(c5)Sc5ccccc5N6CCCCCCCC)cc4)c4ccc(/C=C/c5ccc(/C=C/c6ccc(N(c7ccc(/C=C/c8ccc(N(c9ccccc9)c9ccccc9)cc8)cc7)c7ccc(/C=C/c8ccc(N(c9ccccc9)c9ccccc9)cc8)cc7)cc6)c6nsnc56)cc4)cc3)ccc21
3. O=C1CCCc2c1[nH]c1cc3c(cc21)OCO3
4. C(=C\N1CCCC1)/c1nc2ccccc2nc1-c1ccccc1
5. COc1ccc2nc3c(nc2c1)c(-c1ccccc1)nn3C
6. CC(C)(C)[Si](C)(C)C#CC1=CC2=c3cc(C#C[Si](C)(C)C(C)(C)C)c4nc(C(F)(F)C(F)(F)C(F)(F)F)nc5c(C#C[Si](C)(C)C(C)(C)C)cc(c3c54)C3=CC(C#C[Si](C)(C)C(C)(C)C)=C4N=C(C(F)(F)C(F)(F)C(F)(F)F)N=C1C4C32 (stereo not given)
7. CN(C)c1ccc(C(=Cc2ccc(C#N)cc2)c2ccc(N(C)C)cc2)cc1

RESULT:
1. 0.60
2. 0.25
3. -0.35
4. 0.93
5. 1.09
6. 0.32
7. 0.85

Would you be so kind as to report log10 of fluorescence lifetime for each listed record?
1. CC1=C(C(C)(C)C)C(C)=[N+]2C1=C(C)c1c(C)c(C(C)(C)C)c(C)n1[B-]2(F)F
2. N#CC(C#N)=C(/C=C/c1ccc(N(c2ccccc2)c2ccccc2)cc1)c1ccc2c3c(cccc13)CC2
3. CCC(CC)COC1=CC2=C3c4cc(OCC(CC)CC)c(-c5cccs5)n4[B-](F)(F)[n+]4c3n(c3cc(C(C)(C)C)ccc34)[B-](F)(F)[N+]2=C1c1cccs1
4. Cc1csc(C)c1C1=C(c2c(C)sc(-c3ccc(-c4nc(-c5ccccc5)c(-c5ccccc5)[nH]4)cc3)c2C)C(F)(F)C(F)(F)C1(F)F
5. N#Cc1ccc2c(c1)CCc1nc(-c3ccc([N+](=O)[O-])cc3)c3c(c1-2)CCc1cc(C#N)ccc1-3
6. CC(=O)c1ccc(-c2cnc3nn4ccccc4c3n2)cc1
7. c1ccc(/C(=C(\c2ccccc2)c2ccccc2-c2ccc(-c3ccccc3)cc2)c2ccccc2-c2ccc(-c3ccccc3)cc2)cc1

RESULT:
[0.62, 0.54, -0.30, -0.38, 0.13, 0.71, 0.85]

Would you be so kind as to report log10 of fluorescence lifetime for each listed record?
1. CN(C)c1ccc(/C=C/C(=C(C#N)C#N)c2ccc3c4c(cccc24)CC3)cc1
2. COc1ccc(/C=C/C=C/C=C/c2ccc([N+](=O)[O-])cc2)cc1
3. COc1ccc(C(=Cc2ccc(/C=C(\C#N)c3ccc([N+](=O)[O-])cc3)cc2)c2ccc(OC)cc2)cc1
4. COc1cc2c(cc1-c1ccc(N(c3ccccc3)c3ccccc3)cc1)Cc1c3c(c4c(c1-2)-c1cc(OC)c(-c2ccc(N(c5ccccc5)c5ccccc5)cc2)cc1C4)C(=O)N(CCC(C)C)C3=O

RESULT:
1. 0.72
2. 0.23
3. 0.15
4. 0.62

Would you be so kind as to report log10 of fluorescence lifetime for each listed record?
1. CN(C)c1ccc(C2=Nc3scc(-c4ccc(N(C)C)cc4)[n+]3[B-](F)(F)O2)cc1
2. CCC1(CC)c2cc(B(c3c(C)cc(C)cc3C)c3c(C)cc(C)cc3C)ccc2-c2c1c1c(c3c2C(CC)(CC)c2cc(N(c4ccccc4)c4ccccc4)ccc2-3)C(CC)(CC)c2cc(N(c3ccccc3)c3ccccc3)ccc2-1
3. N#Cc1ccc(C#Cc2ccc(C#Cc3ccc(C#Cc4ccccc4C#N)cc3C#N)cc2C#N)cc1

RESULT:
[-0.68, 1.16, 0.09]
